assay-name: Reversal of p-gp-mediated multidrug-resistance in human MCF7/ADM cells after 48 hrs by SRB assay
Format: cell-based
Please use true for IC50 under 200 mg/L and false for everything else, ties included.

Worked cases, answers included:
molecule	category
CC(=O)OC/C1=C\C[C@H]2[C@@H](/C=C(\C)C(=O)[C@@]3(OC(C)=O)C[C@H](C)[C@H](OC(=O)c4ccccc4)[C@@H]3[C@H]1OC(C)=O)C2(C)C (relative stereo)	false
C=C1[C@@H](OC(=O)c2ccccc2)C[C@H]2[C@@H](/C=C(\C)C(=O)[C@@]3(OC(C)=O)C[C@H](C)[C@H](OC(=O)c4ccccc4)[C@@H]3[C@H]1OC(C)=O)C2(C)C	true
CC(=O)OC/C1=C/[C@H]2[C@@H](OC(=O)/C=C/c3ccccc3)[C@@H](C)C[C@]2(OC(C)=O)C(=O)/C(C)=C/[C@@H]2[C@H](CC1)C2(C)C (relative stereo)	true
C=C1CC[C@H]2[C@@H](/C=C(\C)C(=O)[C@@]3(OC(C)=O)C[C@H](C)[C@H](OC(=O)c4ccccc4)[C@@H]3[C@H]1OC(C)=O)C2(C)C	true
COc1ccc(CCN(C)CCCC(C#N)(c2ccc(OC)c(OC)c2)C(C)C)cc1OC (stereo unspecified) [VERAPAMIL]	false

Now examine the next entry.
Input: Threshold test, IC50 < 200 mg/L: CC(=O)O[C@@H]1[C@H]2[C@@H](OC(=O)Cc3ccccc3)[C@@H](C)C[C@]2(OC(C)=O)C(=O)/C(C)=C/[C@@H]2[C@H](CC[C@]13CO3)C2(C)C
Output: false

* * *

logP overview
assay-name: Octanol-water partition coefficient, log P of the compound
Assay type: physicochemical
Please reply with the number alone, leaving off any unit.

Worked examples follow.
compound	logP
CC(=O)OC/C1=C\C[C@H]2[C@@H](/C=C(\C)C(=O)[C@@]3(OC(C)=O)C[C@H](C)[C@H](OC(=O)c4ccccc4)[C@@H]3[C@H]1OC(C)=O)C2(C)C (relative stereo)	6.1
CC(=O)OC/C1=C/[C@H]2[C@@H](OC(=O)/C=C/c3ccccc3)[C@@H](C)C[C@]2(OC(C)=O)C(=O)/C(C)=C/[C@@H]2[C@H](CC1)C2(C)C (relative stereo)	5.8
C=C1[C@@H](OC(=O)c2ccccc2)C[C@H]2[C@@H](/C=C(\C)C(=O)[C@@]3(OC(C)=O)C[C@H](C)[C@H](OC(=O)c4ccccc4)[C@@H]3[C@H]1OC(C)=O)C2(C)C	7.9
C=C1CC[C@H]2[C@@H](/C=C(\C)C(=O)[C@@]3(OC(C)=O)C[C@H](C)[C@H](OC(=O)c4ccccc4)[C@@H]3[C@H]1OC(C)=O)C2(C)C	6.4

Kindly review the next compound as well.
Input: # lookup: logP of CC(=O)O[C@@H]1[C@H]2[C@@H](OC(=O)Cc3ccccc3)[C@@H](C)C[C@]2(OC(C)=O)C(=O)/C(C)=C/[C@@H]2[C@H](CC[C@]13CO3)C2(C)C
Output: 5.6
